Every entry's value here was drawn from patent US20220306695A1.

target: Human C3 (human, UniProt P01024 23-1663); test: cell-based or functional assay
Sequence (P01024 23-1663 limits assumed): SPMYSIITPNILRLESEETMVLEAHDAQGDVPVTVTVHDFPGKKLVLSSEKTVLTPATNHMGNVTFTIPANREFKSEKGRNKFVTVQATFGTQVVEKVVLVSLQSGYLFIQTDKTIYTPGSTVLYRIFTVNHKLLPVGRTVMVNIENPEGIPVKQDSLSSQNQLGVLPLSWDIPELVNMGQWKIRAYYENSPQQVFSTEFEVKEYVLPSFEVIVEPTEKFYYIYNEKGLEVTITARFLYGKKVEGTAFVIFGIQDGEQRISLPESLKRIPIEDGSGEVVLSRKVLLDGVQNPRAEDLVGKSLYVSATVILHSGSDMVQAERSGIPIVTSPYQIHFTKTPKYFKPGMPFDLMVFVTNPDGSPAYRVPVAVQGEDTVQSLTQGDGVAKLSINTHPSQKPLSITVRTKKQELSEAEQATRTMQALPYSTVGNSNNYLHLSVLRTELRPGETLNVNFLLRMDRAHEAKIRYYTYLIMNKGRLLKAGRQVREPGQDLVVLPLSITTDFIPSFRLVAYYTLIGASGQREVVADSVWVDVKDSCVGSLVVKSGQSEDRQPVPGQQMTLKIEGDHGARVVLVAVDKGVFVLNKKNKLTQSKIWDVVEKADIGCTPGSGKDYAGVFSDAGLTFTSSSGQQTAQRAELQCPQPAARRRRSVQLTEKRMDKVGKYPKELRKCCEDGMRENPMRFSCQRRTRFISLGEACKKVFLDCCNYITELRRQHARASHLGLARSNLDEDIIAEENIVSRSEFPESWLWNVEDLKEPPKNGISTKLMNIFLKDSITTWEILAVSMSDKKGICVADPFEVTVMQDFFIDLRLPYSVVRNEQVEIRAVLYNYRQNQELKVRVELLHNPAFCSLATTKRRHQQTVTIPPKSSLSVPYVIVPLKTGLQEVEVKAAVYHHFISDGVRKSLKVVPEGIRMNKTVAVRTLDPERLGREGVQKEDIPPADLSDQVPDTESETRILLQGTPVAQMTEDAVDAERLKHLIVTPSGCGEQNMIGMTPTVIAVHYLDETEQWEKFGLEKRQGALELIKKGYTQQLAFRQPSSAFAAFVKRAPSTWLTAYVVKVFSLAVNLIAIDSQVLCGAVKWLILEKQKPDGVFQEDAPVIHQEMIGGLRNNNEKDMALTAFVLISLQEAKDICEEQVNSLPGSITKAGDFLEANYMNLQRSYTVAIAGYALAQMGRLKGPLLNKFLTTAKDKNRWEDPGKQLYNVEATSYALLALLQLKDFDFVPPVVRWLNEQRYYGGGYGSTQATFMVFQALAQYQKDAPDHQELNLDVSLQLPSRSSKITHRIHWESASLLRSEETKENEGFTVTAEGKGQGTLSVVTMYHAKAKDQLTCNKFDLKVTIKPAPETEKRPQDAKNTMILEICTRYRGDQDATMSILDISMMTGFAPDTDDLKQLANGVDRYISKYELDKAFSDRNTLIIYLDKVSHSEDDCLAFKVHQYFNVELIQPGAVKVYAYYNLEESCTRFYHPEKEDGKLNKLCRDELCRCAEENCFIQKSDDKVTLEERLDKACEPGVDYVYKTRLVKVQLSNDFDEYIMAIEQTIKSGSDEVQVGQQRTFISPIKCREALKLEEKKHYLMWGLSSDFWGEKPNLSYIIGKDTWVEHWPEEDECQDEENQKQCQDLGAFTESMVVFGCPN
Positions of bridges follow the written chain, without caps; N, C: chain ends. Non-standard residues stand in square brackets, D forms with d. β3hI = CC[C@H](C)[C@H](N)CC(=O)O; Nle = CCCC[C@H](N)C(=O)O; Nva = CCC[C@H](N)C(=O)O
The following binders are shown together with reported IC50, CP hemolysis values.
property-measured: IC50, CP hemolysis (nM)

{"columns": ["binder", "value-unit", "relation-operator", "result-number"],
 "data": [
  ["Ac-IC[Nle]WQDWGEHRCT-NH2 (disulfide 2-12; SMILES CCCC[C@@H]1NC(=O)[C@@H](NC(=O)[C@@H](NC(C)=O)[C@@H](C)CC)CSSC[C@@H](C(=O)N[C@H](C(N)=O)[C@@H](C)O)NC(=O)[C@H](CCCNC(=N)N)NC(=O)[C@H](Cc2c[nH]cn2)NC(=O)[C@H](CCC(=O)O)NC(=O)CNC(=O)[C@H](Cc2c[nH]c3ccccc23)NC(=O)[C@H](CC(=O)O)NC(=O)[C@H](CCC(N)=O)NC(=O)[C@H](Cc2c[nH]c3ccccc23)NC1=O) [Ac-IC(1)XWQDWGEHRC(1)T-NH2 with Norleucine at position 3]", "nM", "=", 480],
  ["Ac-IC[Nva]WQDWGEHRCT-NH2 (disulfide 2-12; SMILES CCC[C@@H]1NC(=O)[C@@H](NC(=O)[C@@H](NC(C)=O)[C@@H](C)CC)CSSC[C@@H](C(=O)N[C@H](C(N)=O)[C@@H](C)O)NC(=O)[C@H](CCCNC(=N)N)NC(=O)[C@H](Cc2c[nH]cn2)NC(=O)[C@H](CCC(=O)O)NC(=O)CNC(=O)[C@H](Cc2c[nH]c3ccccc23)NC(=O)[C@H](CC(=O)O)NC(=O)[C@H](CCC(N)=O)NC(=O)[C@H](Cc2c[nH]c3ccccc23)NC1=O) [Ac-IC(1)XWQDWGEHRC(1)T-NH2 with Norvaline at position 3]", "nM", ">", 1000],
  ["Ac-ICIWQDWGEHRCT-NH2 (disulfide 2-12; SMILES CC[C@H](C)[C@H](NC(C)=O)C(=O)N[C@H]1CSSC[C@@H](C(=O)N[C@H](C(N)=O)[C@@H](C)O)NC(=O)[C@H](CCCNC(=N)N)NC(=O)[C@H](Cc2c[nH]cn2)NC(=O)[C@H](CCC(=O)O)NC(=O)CNC(=O)[C@H](Cc2c[nH]c3ccccc23)NC(=O)[C@H](CC(=O)O)NC(=O)[C@H](CCC(N)=O)NC(=O)[C@H](Cc2c[nH]c3ccccc23)NC(=O)[C@H]([C@@H](C)CC)NC1=O) [Compound 2]", "nM", "<", 100],
  ["Ac-IC[β3hI]WQDWGEHRCT-NH2 (disulfide 2-12) [Ac-IC(1)XWQDWGEHRC(1)T-NH2 with Beta-Homo-Isoleucine at position 3]", "nM", ">", 10000],
  ["Ac-ICVWQDWGEHRCT-NH2 (disulfide 2-12; SMILES CC[C@H](C)[C@H](NC(C)=O)C(=O)N[C@H]1CSSC[C@@H](C(=O)N[C@H](C(N)=O)[C@@H](C)O)NC(=O)[C@H](CCCNC(=N)N)NC(=O)[C@H](Cc2c[nH]cn2)NC(=O)[C@H](CCC(=O)O)NC(=O)CNC(=O)[C@H](Cc2c[nH]c3ccccc23)NC(=O)[C@H](CC(=O)O)NC(=O)[C@H](CCC(N)=O)NC(=O)[C@H](Cc2c[nH]c3ccccc23)NC(=O)[C@H](C(C)C)NC1=O) [Compound A]", "nM", "=", 350]
]}
